Assay: PAMPA
Format: in vitro ADME
Conditions: pH 7.4
recordedMetric: Papp at 5 h, 500 µM (×10⁻⁶ cm/s)

1. O=C(N[C@H](CO)[C@H](O)c1ccc([N+](=O)[O-])cc1)C(Cl)Cl
2. Cn1c(=O)c2c(ncn2C)n(C)c1=O
Which gives the smaller Papp at 5 h, 500 µM number: 1 or 2 ? Mark your answer with the label of the selected entry. 1
(1: 0.3 ×10⁻⁶ cm/s, 2: 1.84 ×10⁻⁶ cm/s)

Data provenance: paper PMC8830944
